- system.under.test: T1, human IL-1RAcP on 293T/17-FR cells (human, UniProt Q9NPH3 21-570)
- T1 sequence (looked up): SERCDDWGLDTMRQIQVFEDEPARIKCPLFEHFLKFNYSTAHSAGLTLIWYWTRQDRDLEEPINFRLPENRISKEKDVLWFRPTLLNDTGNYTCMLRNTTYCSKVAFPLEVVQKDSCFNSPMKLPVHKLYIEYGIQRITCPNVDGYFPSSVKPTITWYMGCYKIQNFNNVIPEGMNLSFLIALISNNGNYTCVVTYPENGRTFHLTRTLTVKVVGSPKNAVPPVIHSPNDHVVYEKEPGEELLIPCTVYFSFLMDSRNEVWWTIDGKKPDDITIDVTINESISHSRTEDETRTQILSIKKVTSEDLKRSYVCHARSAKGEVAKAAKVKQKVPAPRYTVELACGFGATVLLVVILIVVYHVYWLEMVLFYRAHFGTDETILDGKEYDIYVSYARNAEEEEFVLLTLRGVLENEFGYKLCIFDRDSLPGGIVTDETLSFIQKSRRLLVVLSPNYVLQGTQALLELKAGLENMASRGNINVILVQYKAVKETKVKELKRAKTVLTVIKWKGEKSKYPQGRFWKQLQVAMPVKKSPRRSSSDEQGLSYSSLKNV
- assay.overview: cell-based or functional assay
Reported values of functional reporter gene assay (% inhibition), 0.2 µg/mL mAb for individual entries
Use % as the unit, but write only the number.

Below are worked cases with known answers.
• P013.S.01.B.H05 (antibody, V domains shown, rabbit monoclonal antibody; also called P013.A.00109.F08) VH: LEQSGGGAEGGLVKPGGSLELCCKASGFSLSNSYWICWVRQAPGKGLEWIGCIYVGSSGSTYYASWVNGRFTLSRDIDQSTGCLQLNSLTAADTAIYYCARDGATSTSGHLFELWGQGTLVTVSS VL: ALVMTQTPSPVSAAVGGTVTINCQASEDIYSNLAWFQQKPGQPPKLLIYRASTLASGVPSRFSGSGSGTEFTLTISGVQSDDAATYYCLGIYTYISADGSLYNAFGGGTEVVVK = 47
• P013.S.02.B.B02 (antibody, V domains shown, rabbit monoclonal antibody; also called P013.A.00045.H10) VH: LAQSGGGAEGGLVKPGGSLELCCEASGFSLSSSYWICWVRQAPGKGLEWIGCIYTGSSGNTYYASWVNGRFTLSRDIDRSTGCLQLNSLTAADTAMYYCARDANSHYMMNLWGQGTLVTVSS VL: ALVMTQTPSPVSAAVGGTVTINCQASEDIYSNLAWFQQKPGQPPKLLIYDASTLASGVPSRFSGSGSGTEFTLTISGLQSDDAATYYCLGVYTYISADGTLVYNAFGGGTEVVVR = 37

Continue with the binder presented below.
What functional reporter gene assay (% inhibition), 0.2 µg/mL mAb value was documented for this binder, P013.S.01.B.F05 (antibody, V domains shown, rabbit monoclonal antibody; also called P013.A.00087.C06) VH: QSLEESGGRLVTPGGSLTLTCTVSGIDLSNYAMSWVRQAPGKGLEWIGSVISGGSTYYATWAKGRFTISKTSTTVDLKMTSLTTEDTATYFCARGCPGYNGDKYALDLWGPGTVVTVSS VL: AFEMTQTPSSVSEPVGGTVTIKCQASQSIHNYLSWYQQKPGQRPKLLIYRASTLASGVPSRFKGSGSGTEFTLTISGVESADAATYYCQQGATSYDIDNAFGGGTEVVVK ? 54
